Test system: A549 NSCLC
Assay: NCI tumour cell line growth inhibition, 48 h; in the data active = GI50 below about 0.43 µM; inactive = the rest
Possible outcomes: true (1) = active, false (0) = inactive

# molecule, assignedClass
data = [
    ("Oc1cccc2ccc(N/N=C/c3cc(CN4CCOCC4)c(O)c4ncccc34)nc12", "true (1)"),
    ("COc1ccc(NC(=O)C2CCC(CNS(=O)(=O)c3ccccc3)CC2)cc1OC (centres undefined)", "false (0)"),
    ("COC(=O)c1cncc(/C=C/c2c(C)cc(O)cc2C)c1", "false (0)"),
    ("O=C(CC1(O)C(=O)N(Cc2ccccc2)c2ccccc21)c1ccc(C(=O)NCC2CCC3(CC2)OOC2(CCCCC2)OO3)cc1 (centres undefined)", "true (1)"),
    ("c1ccc2c(c1)Nc1ccncc1S2", "false (0)"),
    ("N#CCCN1C/C(=C/c2ccc(Cl)cc2)C(=O)/C(=C/c2ccc(Cl)cc2)C1", "false (0)"),
    ("COc1cc(/C=C/C(=O)c2cccc(-n3cc(-c4ccc(Cl)cc4)[nH]c3=O)c2)cc(OC)c1OC", "false (0)"),
    ("O=C(Nc1cccc(-n2cc(-c3ccncc3)c(-c3cc(O)cc(Cl)c3)n2)c1)c1cc(C(F)(F)F)cc(C(F)(F)F)c1", "false (0)"),
    ("CCCCCO/N=C\\c1c2c(O)c3c(O)c(C)c4c(c3c1O)C(=O)C(C)(O/C=C\\C(OC)C(C)C(OC(C)=O)C(C)C(O)C(C)C(O)C(C)/C=C\\C=C(\\C)C(=O)N2)O4 (centres undefined)", "false (0)"),
]

The reported numbers originate from PubChem BioAssay (NCI).
